What growth was measured for each of the following?
tested on: SN12C renal; assay: NCI-60 one-dose screen, 48 h (100 = growth as untreated, 0 = no growth, -100 = all killed); details: 10 µM unless noted
The panel holds about 83,000 compounds, 20% with a hit somewhere; the sample as a whole holds those more often.
Give bare numbers, in %.

COc1cc(-c2nc3ccccc3s2)ccc1OCc1nc2n(n1)S(=O)(=O)c1ccccc1N2c1ccccc1 : 108
O=C(Nc1ccc(-n2ccc3c(NC(=O)c4ccccc4)nccc32)cc1)Nc1cccc(C(F)(F)F)c1 : 79.2
COc1cccc(-c2nc3sccn3c2-c2ccnc(NCCNC(=O)c3ccccc3)n2)c1 : 84.3
S=c1n(CNc2ccc(Cl)nn2)nc(-c2cc(Cl)cc(Cl)c2Cl)n1/N=C/c1ccc(Cl)cc1 : 103

Moving on to the next molecule.
Provide the reported growth (system: SN12C renal) for CN(C)CC/C=C1\c2ccccc2Sc2ccc(Cl)cc21 48
